Form field: GI50 (one value per entry).
# Test system: NCI/ADR-RES ovarian
# Procedure Details: NCI tumour cell line growth inhibition, 48 h

Solved entries (count: 2):
INSERT INTO results (compound, measured_value) VALUES
  ('O=C(Nc1ccc(Cl)c(Cl)c1)Nc1ccccc1O', '3.59 µM'),
  ('N#Cc1ccc(OC(=O)Nc2ccc(Cl)c(Cl)c2)cc1', '3.79 µM');

Then this compound:
For this compound ( Nc1ccccc1SC1CC(=O)N(c2ccc(Cl)c(Cl)c2)C1=O (configuration not stated) ), measured GI50 is 17.1 µM

* * *

# Tested on: OVCAR-5 ovarian
# Procedure Details: NCI tumour cell line growth inhibition, 48 h
Form field: GI50 (one value per entry).

INSERT INTO measurements (compound, measured_value) VALUES
  ('COc1ccc2c(c1)C(C)Cc1c(ncnc1-n1cnc3cc(C)ccc31)N2C (stereo unspecified)', '294 nM'),
  ('O=C(NCc1ccc(S(=O)(=O)c2cc(F)cc(F)c2)cc1)c1ccc2nccn2c1', '331 nM'),
  ('[F][Sn]([F])([c]1ccccc1)[c]1ccccc1', '1510 nM'),
  ('N.N.NCCCCCCCCCN.O=C([O-])CC(=O)[O-].O=C([O-])CC(=O)[O-].[Pt+4].[Pt+4]', '> 100000 nM');

For this compound ( C/C(=N\NC(=S)N1CC2CCC(CC2)C1)c1ccccn1 ), measured GI50 is 94.9 nM

For this compound ( S=C1SC2=Nc3ccccc3CN2C2=NCCN12 ), measured GI50 is > 100000 nM

For this compound ( O=C(N/N=C/c1ccc([N+](=O)[O-])o1)c1ccc(O)cc1 ), measured GI50 is 9320 nM

For this compound ( O=C(Nc1ccc(-n2cc(-c3ccncc3)c(-c3ccc(O)c(Cl)c3)n2)cc1)Nc1cccc(Cl)c1Cl ), measured GI50 is > 32500 nM

For this compound ( CC[C@@]1(O)C(=O)OCc2c1cc1n(c2=O)Cc2c-1nc1cc(F)c(C)c3c1c2[C@@H](N)CC3 ), measured GI50 is 20.1 nM

For this compound ( CN1CCN(c2ccc(Nc3ncc4cc(C#N)c(=O)n(C5CCCC5)c4n3)cc2)CC1 ), measured GI50 is 942 nM

For this compound ( O=C(CSC(c1ccccc1)c1ccccc1)N/N=C/c1ccco1 ), measured GI50 is 1970 nM

* * *

# System: HCC-2998 colon
# Procedure Details: NCI tumour cell line growth inhibition, 48 h; in the data active = GI50 below about 0.43 µM; inactive = the rest
Allowed answers: active, inactive

Example results:
INSERT INTO results (smiles_input, assigned_label) VALUES
  ('O=C(Nc1ccc(-n2cc(-c3ccncc3)c(-c3ccc(O)c(Cl)c3)n2)cc1)Nc1cccc(Cl)c1Cl', 'inactive'),
  ('S=C1SC2=Nc3ccccc3CN2C2=NCCN12', 'inactive'),
  ('CCCCCc1ccc(S(=O)(=O)Nc2cc(-c3csc(NC(C)=O)n3)ccc2N2CCN(C)CC2)cc1', 'inactive');

Enquiry: Kindly provide the recorded test outcome for the following compound: COc1ccc(Cc2cnc(NC(=O)c3ccc4c(c3)OCCO4)s2)cc1
Return: active

Enquiry: Kindly provide the recorded test outcome for the following compound: CC[C@@]1(O)C(=O)OCc2c1cc1n(c2=O)Cc2c-1nc1cc(F)c(C)c3c1c2[C@@H](N)CC3
Return: active

Enquiry: Kindly provide the recorded test outcome for the following compound: O=c1oc2ccc(Br)cc2c(=O)n1-c1ccc(F)cc1F
Return: inactive

Enquiry: Kindly provide the recorded test outcome for the following compound: COC(=O)c1cc(/C=C/c2ccc(S(N)(=O)=O)cc2)ccc1O
Return: inactive

Enquiry: Kindly provide the recorded test outcome for the following compound: O=C(Nc1ccc(Cl)c(Cl)c1)Nc1ccccc1O
Return: inactive

Enquiry: Kindly provide the recorded test outcome for the following compound: O=C(CSC(c1ccccc1)c1ccccc1)N/N=C/c1ccco1
Return: inactive

Enquiry: Kindly provide the recorded test outcome for the following compound: CO/N=C(/C)c1cccc(Nc2cc(-c3ccccc3)nc3ccc(OC)cc23)c1
Return: inactive
